- Tested on: Saccharomyces cerevisiae;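 further: PSI is a weighted mean of sequencing reads over stability bins, variants kept only with over 10 reads, mCherry proximal and sfGFP distal, peptide attached via GGGS linker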
- measurementDescription: protein stability index of tFT-peptide fusion (C-terminal peptide) (PSI (0-1 scale)); higher = more stable (slower turnover)
- conditionInfo: genetic background: wild type; temperature: 30 C
# cutoff 0.7 applies to protein stability index; >= gives MET, < gives NOT MET

INSERT INTO assay_data (querysequence, tgt, qualitativelabel) VALUES
  ('PPPVPTRPSPPP', 'Saccharomyces cerevisiae', 'NOT MET'),
  ('ALPLSPRTHRCS', 'Saccharomyces cerevisiae', 'NOT MET'),
  ('CYRWVLGVDARV', 'Saccharomyces cerevisiae', 'NOT MET'),
  ('GLVSALSGLLTP', 'Saccharomyces cerevisiae', 'NOT MET'),
  ('GRGGVLEEAVGG', 'Saccharomyces cerevisiae', 'NOT MET'),
  ('GRRPDEQRQTIG', 'Saccharomyces cerevisiae', 'NOT MET'),
  ('SSAPPPPPRPLP', 'Saccharomyces cerevisiae', 'NOT MET'),
  ('CGLFFSCVGVSG', 'Saccharomyces cerevisiae', 'NOT MET'),
  ('LFIYSMKRFILE', 'Saccharomyces cerevisiae', 'NOT MET'),
  ('SLLSCDETEFSS', 'Saccharomyces cerevisiae', 'NOT MET'),
  ('QPGRGIAFVCFD', 'Saccharomyces cerevisiae', 'MET'),
  ('LSVSEILAVKCG', 'Saccharomyces cerevisiae', 'NOT MET'),
  ('SSFSAPPMPRSF', 'Saccharomyces cerevisiae', 'NOT MET'),
  ('VSSAGAQHQVTH', 'Saccharomyces cerevisiae', 'NOT MET'),
  ('LHRFYVGQLVVN', 'Saccharomyces cerevisiae', 'NOT MET'),
  ('FGTKSLPSLLAM', 'Saccharomyces cerevisiae', 'NOT MET'),
  ('RTWLHLVVPVWG', 'Saccharomyces cerevisiae', 'NOT MET'),
  ('PLPPHAPPNSAP', 'Saccharomyces cerevisiae', 'NOT MET'),
  ('SWGGGGGGAGRG', 'Saccharomyces cerevisiae', 'NOT MET'),
  ('KKKEKKRKEEKN', 'Saccharomyces cerevisiae', 'MET'),
  ('VVCVGGVELLVL', 'Saccharomyces cerevisiae', 'NOT MET'),
  ('SCTDIGWIMRDI', 'Saccharomyces cerevisiae', 'NOT MET'),
  ('IVVLMEADLAGC', 'Saccharomyces cerevisiae', 'NOT MET'),
  ('GGGGSGGAGGGG', 'Saccharomyces cerevisiae', 'NOT MET'),
  ('GWNCTAFRTLHI', 'Saccharomyces cerevisiae', 'NOT MET'),
  ('FSIFFFSFFSCF', 'Saccharomyces cerevisiae', 'NOT MET'),
  ('NRYRILDKLRRK', 'Saccharomyces cerevisiae', 'NOT MET'),
  ('GAVGLARVSASN', 'Saccharomyces cerevisiae', 'NOT MET'),
  ('CLAFDLGLSPLF', 'Saccharomyces cerevisiae', 'MET'),
  ('LFFSPRRLSPPT', 'Saccharomyces cerevisiae', 'MET'),
  ('FSYLSFLPSLAA', 'Saccharomyces cerevisiae', 'NOT MET'),
  ('ARIQECLTKASK', 'Saccharomyces cerevisiae', 'NOT MET'),
  ('HLPLPPRLLTHV', 'Saccharomyces cerevisiae', 'NOT MET'),
  ('KTLYIAKTKSRA', 'Saccharomyces cerevisiae', 'NOT MET'),
  ('IALWLYALSLAF', 'Saccharomyces cerevisiae', 'NOT MET'),
  ('LMWVFPRVVWLY', 'Saccharomyces cerevisiae', 'NOT MET'),
  ('LLFLGSSLRDTF', 'Saccharomyces cerevisiae', 'MET'),
  ('GYACSIFYLRCV', 'Saccharomyces cerevisiae', 'NOT MET'),
  ('PAASHPPRWPRR', 'Saccharomyces cerevisiae', 'MET'),
  ('FLLSLYSVPFVL', 'Saccharomyces cerevisiae', 'NOT MET'),
  ('VTPLPPPRTFLP', 'Saccharomyces cerevisiae', 'NOT MET'),
  ('GKAKGRESGDRQ', 'Saccharomyces cerevisiae', 'NOT MET'),
  ('RSFLTDLLRGAA', 'Saccharomyces cerevisiae', 'NOT MET'),
  ('PPHPPPLLPFSI', 'Saccharomyces cerevisiae', 'MET'),
  ('LWRSRSCSGHSF', 'Saccharomyces cerevisiae', 'NOT MET'),
  ('GLGMIIQNIIHS', 'Saccharomyces cerevisiae', 'NOT MET'),
  ('TRVVSPNVILMC', 'Saccharomyces cerevisiae', 'NOT MET'),
  ('RHSSRYLIEFDN', 'Saccharomyces cerevisiae', 'MET'),
  ('FLLSARGVIVFW', 'Saccharomyces cerevisiae', 'NOT MET'),
  ('EKDRAVGAAKAA', 'Saccharomyces cerevisiae', 'NOT MET');
